The following binders are shown together with reported IC50 values.
Molecular target: RBDSARS-CoV (SARS-CoV S protein residues 318-510, C-terminal His-tag) (SARS-CoV, UniProt P59594 318-510)
Experiment: ELISA

# BINDER, IC50
records = [
    ("4P-74 (VHH) VHH: HVQLVESGGGLVQAGGSLRLSCATSGRTFSTYRMSWFRQAPGKEREFVATIIWSVGSTHYADSVKGRFTISRDNAKNMVYLQMNSLKPEDTAVYYCAAQRSDSSSWGYEDDYDYWGQGTQVTVSS", "> 8000 nM"),
    ("5p-165 (VHH) VHH: HVQLVESGGGLVQAGESLRLSCVASGSISSINAMGWFRQAPGKQRELVASISNIHTTLYAESVKGRFTISRDTAKNTADLQMDSLKPEDTAIYYCNLRQDCSYNGCDEYWGQGTQVTVSS", "10 to 100 nM"),
    ("5p-14 (VHH) VHH: QVQLVESGGGLVQPGGSLRLSCVASGLTFSRYTMAWFRQAPGKERVFVAAVSKPGGSTYYADSVKGRFTISRDNAKNTVYLQTSRLNPDDTAVYSCAADLTVLLTANPGHYKYWGQGTQVTVSS", "< 10 nM"),
    ("5p-61 (VHH) VHH: QVQLVESGGGLVQAGGSLRLACAGSGGTFSSYIMAWFHQAPGKEREFIAGISKTGSDTYYADSVKGRFTISRDNAKNTVYLQMNSLKPEDTAVYYCAARRGPLITTSRLHYDFWGQGTQVTVSS", "10 to 100 nM"),
    ("5p-99 (VHH) VHH: HVQLVESGGGSVQPGGSLRLSCAASGLTLDHYAVGWFRQAPGKEREGVSCISSSTGSAYYADSVKGRFTISRDNAKNMMYLEMNSLKPEDTAVYYCATDLLRRMLPGSSWWCLNQNDFGSWGQGTQVTVSS", "1000 to 8000 nM"),
    ("4P-46 (VHH) VHH: HVQLVESGGGLVQAGGSLRLSCAASRIFSTSAMGWFRQAPGKEREFVAAISWSGTNTHYADSVKGRFAISTDNAKNTVYLQMNSLKPEDTAVYYCAQGGWGISQPIEVDYWGKGTQVTVSS", "10 to 100 nM"),
    ("5p-58 (VHH) VHH: HVQLVESGGGLVQAGESLRLLCVASGSIDSINAMGWFRQAPGKQRELVASISNMHTTMYAESVKGRFTISRDNFKNTADLQMNSLKPEDTAIYFCNLRQGCSYNGCDEYWGQGTQVTVSS", "1000 to 8000 nM"),
    ("5p-78 (VHH) VHH: HVQLVESGGGLVQAGGSLRLSCAAAARFSTSAMGWFRQAPGKEREFVAAVSWSNTNIHYADTVKGRFTISADTAKETVYLQMNSLKPDDTAVYYCAQGGWGLTQPIIVDYWGKGTQVTVSS", "< 10 nM"),
]
